Molecular target: human MCH-1R (human, UniProt Q99705 1-353)
Sequence (Q99705 whole entry): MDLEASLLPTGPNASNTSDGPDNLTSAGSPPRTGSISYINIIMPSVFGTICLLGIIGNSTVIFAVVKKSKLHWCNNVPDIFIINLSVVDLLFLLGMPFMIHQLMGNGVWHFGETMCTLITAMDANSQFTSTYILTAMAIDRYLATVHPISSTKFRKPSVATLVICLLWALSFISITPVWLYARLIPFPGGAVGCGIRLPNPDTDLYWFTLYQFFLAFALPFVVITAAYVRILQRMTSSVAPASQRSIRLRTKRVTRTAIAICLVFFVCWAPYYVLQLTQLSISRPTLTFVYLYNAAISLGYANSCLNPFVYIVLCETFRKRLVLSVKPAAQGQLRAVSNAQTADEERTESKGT
Test: cell-based or functional assay
MEASURED PARAMETER: EC50, aequorin bioluminescence (nM)

1. XCMLQRVYRPC (HELM PEPTIDE1{[ac].[dR].C.M.L.Q.R.V.Y.R.P.C.[am]}$PEPTIDE1,PEPTIDE1,3:R3-12:R3$$$V2.0; SMILES CSCC[C@@H]1NC(=O)[C@@H](NC(=O)[C@@H](CCCNC(=N)N)NC(C)=O)CSSC[C@@H](C(N)=O)NC(=O)[C@@H]2CCCN2C(=O)[C@H](CCCNC(=N)N)NC(=O)[C@H](Cc2ccc(O)cc2)NC(=O)[C@H](C(C)C)NC(=O)[C@H](CCCNC(=N)N)NC(=O)[C@H](CCC(N)=O)NC(=O)[C@H](CC(C)C)NC1=O) [SEQ. ID. NO. 30 (D-Arg^6, Gln^10 analog of Ac-hMCH(6-16)-NH2)]: 2300
2. XCMLNRVYAPC (HELM PEPTIDE1{[ac].[dR].C.M.L.N.R.V.Y.A.P.C.[am]}$PEPTIDE1,PEPTIDE1,3:R3-12:R3$$$V2.0; SMILES CSCC[C@@H]1NC(=O)[C@@H](NC(=O)[C@@H](CCCNC(=N)N)NC(C)=O)CSSC[C@@H](C(N)=O)NC(=O)[C@@H]2CCCN2C(=O)[C@H](C)NC(=O)[C@H](Cc2ccc(O)cc2)NC(=O)[C@H](C(C)C)NC(=O)[C@H](CCCNC(=N)N)NC(=O)[C@H](CC(N)=O)NC(=O)[C@H](CC(C)C)NC1=O) [SEQ. ID. NO. 33 (D-Arg^6, Asn^10, Ala^14 analog of Ac-hMCH(6-16)-NH2)]: 260

Recorded values, source patent US20050020492A1.
